Source listed as patent US20210292393A1.

target: SARS-CoV spike protein (SARS-CoV, UniProt P59594 14-1190)
readoutKind: median fluorescence intensity, fold over isotype control (fold over isotype)
Give the quantity in fold over isotype, number only.

Could you tell me which median fluorescence intensity, fold over isotype control is on file for antibody 324 (antibody, V domains shown) VH: QVQLQESGPGLVKPSGTLSLTCAVSGGSISSSNWWSWVRQPPGKGLEWIGEIYHSGSTNYNPSLKSRVTISVDNSKNQFSLKLSSVTAADTAVYYCARESVAAAGISYYYYGMDVWGQGTTVTVSS VL: EIVLTQSPGTLSLSPGERATLSCRASQSVSGRYLAWYQQKPGQAPRLLIYGASSRATGIPDRFSGSGSGTDFTLTISRLEPEDFAVYYCQHYGSSPGTFGQGTRLEIK ?
1.14

Endpoint output: median fluorescence intensity, fold over isotype control of antibody 351 (antibody, V domains shown) VH: HVQLVESGGGVVQPGRSLRLSCAASGFISRNYGMEWVRQAPGQGLEWVAGIWYDGSKKYYADSVKGRFTISRDTSKNTLFLQMDSLRAEDTAVFYCATATKTFCGGDCPPGGMDVWGQGTTVTVST VL: SYVLTQPPSVSVAPGKTAWITCVGNNIESESVHWYQQRPGQAPVLVIYYDSDRPSGIPERFFGSNSGNTATLTISRVEAGDEADYYCQVWDSNSDLMVFGGGTKLTVL . Value?
1.08
